# target of assay: hOGA (Homo sapiens, UniProt O60502)
# Construct: The gene construct encoding the full-length human OGA fused to N-terminal His6-tag; His6 (N)
# Sequence (O60502 whole entry, the tested form may be a part): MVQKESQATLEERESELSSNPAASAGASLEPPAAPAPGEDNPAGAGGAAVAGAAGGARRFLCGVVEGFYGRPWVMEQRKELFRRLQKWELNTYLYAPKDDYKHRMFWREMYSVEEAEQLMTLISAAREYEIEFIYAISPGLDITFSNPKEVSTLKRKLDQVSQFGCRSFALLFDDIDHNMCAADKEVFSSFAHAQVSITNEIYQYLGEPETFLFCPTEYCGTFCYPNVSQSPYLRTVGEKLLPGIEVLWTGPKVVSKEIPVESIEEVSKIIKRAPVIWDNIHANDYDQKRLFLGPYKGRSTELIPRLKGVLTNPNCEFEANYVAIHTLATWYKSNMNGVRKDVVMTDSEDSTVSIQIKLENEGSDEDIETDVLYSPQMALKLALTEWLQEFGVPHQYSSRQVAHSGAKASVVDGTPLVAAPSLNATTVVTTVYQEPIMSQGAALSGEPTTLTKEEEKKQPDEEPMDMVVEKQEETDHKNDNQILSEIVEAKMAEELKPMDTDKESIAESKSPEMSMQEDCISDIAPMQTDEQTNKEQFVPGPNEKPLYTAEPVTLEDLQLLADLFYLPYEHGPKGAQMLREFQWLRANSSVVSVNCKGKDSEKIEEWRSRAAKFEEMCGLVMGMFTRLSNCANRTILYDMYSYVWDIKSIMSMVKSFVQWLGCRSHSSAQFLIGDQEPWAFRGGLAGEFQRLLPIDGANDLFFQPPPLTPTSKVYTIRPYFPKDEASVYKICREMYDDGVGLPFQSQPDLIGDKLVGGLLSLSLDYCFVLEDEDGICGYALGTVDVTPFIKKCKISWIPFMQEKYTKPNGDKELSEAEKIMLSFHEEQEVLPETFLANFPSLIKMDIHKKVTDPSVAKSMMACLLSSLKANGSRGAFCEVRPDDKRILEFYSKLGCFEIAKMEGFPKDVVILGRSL
# assay summary: hOGA inhibition, 4-MU-GlcNAc fluorescent substrate, Dixon plots (competitive model)
# condition notes: recombinant hOGA, 4-MU-GlcNAc, pH 7.5, 37 °C
pKi: −log10 of the molar value.
quantity: pKi

# pKi lookup, item CC(=O)N[C@H]1C(=NNS(=O)(=O)c2ccc(F)cc2)O[C@H](CO)[C@@H](O)[C@@H]1O 7.02

(1) CC(=O)N[C@H]1C(=NNS(=O)(=O)c2ccc(Cl)cc2)O[C@H](CO)[C@@H](O)[C@@H]1O
(2) CC(=O)N[C@H]1/C(=N/NS(=O)(=O)c2cccc3ccccc23)O[C@H](CO)[C@@H](O)[C@@H]1O
(3) CC(=O)N[C@H]1C(=NNS(=O)(=O)c2ccc(C(F)(F)F)cc2)O[C@H](CO)[C@@H](O)[C@@H]1O
I would appreciate it if you could sort these 3 molecules by pKi, starting from the smallest number. Answer by listing the labels in the order asked for. 3, 1, 2

###

Collected melting point values appear next to each entry.

# melting point lookup, item CC(=O)N[C@H]1C(=NNS(=O)(=O)c2ccc3ccccc3c2)O[C@H](CO)[C@@H](O)[C@@H]1O [5e] 172 to 173 °C

Input CC(=O)N[C@H]1C(=NNS(=O)(=O)c2ccc(Cl)cc2)O[C@H](CO)[C@@H](O)[C@@H]1O [5d] 180 to 182 °C (dec.)

Input CC(=O)N[C@H]1C(=NNS(=O)(=O)c2ccc(C(F)(F)F)cc2)O[C@H](CO)[C@@H](O)[C@@H]1O [5b] 175 to 176 °C (dec.)

Input CC(=O)N[C@H]1C(=NNS(=O)(=O)c2ccc(F)cc2)O[C@H](CO)[C@@H](O)[C@@H]1O [5c] 175 to 177 °C

Input CC(=O)N[C@H]1/C(=N/NS(=O)(=O)c2cccc3ccccc23)O[C@H](CO)[C@@H](O)[C@@H]1O [5f] 145 to 147 °C

Next up:
# melting point lookup, item CC(=O)N[C@H]1C(=NNS(=O)(=O)c2ccc(C)cc2)O[C@H](CO)[C@@H](O)[C@@H]1O [5a] 165 to 166 °C

###

# target of assay: hHexB (Homo sapiens)
# Sequence (P07686 122-556): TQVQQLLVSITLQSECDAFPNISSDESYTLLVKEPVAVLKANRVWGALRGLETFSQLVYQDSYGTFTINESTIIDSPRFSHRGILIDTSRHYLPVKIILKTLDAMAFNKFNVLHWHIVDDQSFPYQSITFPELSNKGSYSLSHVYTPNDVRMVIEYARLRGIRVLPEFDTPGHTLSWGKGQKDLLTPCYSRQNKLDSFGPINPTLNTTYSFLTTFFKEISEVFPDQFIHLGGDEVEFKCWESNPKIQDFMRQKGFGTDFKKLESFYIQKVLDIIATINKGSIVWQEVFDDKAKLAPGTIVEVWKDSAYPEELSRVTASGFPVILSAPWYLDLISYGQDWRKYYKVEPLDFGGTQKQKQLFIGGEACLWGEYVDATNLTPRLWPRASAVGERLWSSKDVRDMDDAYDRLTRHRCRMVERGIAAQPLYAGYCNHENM
# assay summary: hHexB inhibition, pNP-GlcNAc colorimetric substrate, Michaelis–Menten kinetics
# condition notes: recombinant hHexB, pH 5.0, 35 °C
pKi: −log10 of the molar value.
quantity: pKi

# pKi lookup, item CC(=O)N[C@H]1C(=NNS(=O)(=O)c2ccc(C(F)(F)F)cc2)O[C@H](CO)[C@@H](O)[C@@H]1O [5b] 7.32

Input CC(=O)N[C@H]1C(=NNS(=O)(=O)c2ccc(Cl)cc2)O[C@H](CO)[C@@H](O)[C@@H]1O [5d] 7.41

(A) CC(=O)N[C@H]1/C(=N/NS(=O)(=O)c2cccc3ccccc23)O[C@H](CO)[C@@H](O)[C@@H]1O [5f]
(B) CC(=O)N[C@H]1C(=NNS(=O)(=O)c2ccc(F)cc2)O[C@H](CO)[C@@H](O)[C@@H]1O [5c]
Lower pKi: A or B ? Record your answer as the label of the chosen record. B
(B: 7.35, A: 8.17)

Hey, just so you know, these numbers are from paper PMC8834866.
